# experiment.notes: collision cross section in nitrogen (drift tube, single-field); higher = larger gas-phase ion size;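 note: chemical standards at 10 µM analysed by drift tube IMS-QTOF MS in about 3.95 torr nitrogen, mean of duplicate injections differing ≤1%, mass error below 10 ppm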
# condition.label: ion type: [M+Na]; ion source: ESI; ion mode: Positive
measurement.kind: collision cross section in nitrogen (Å²)
Numbers only, in Å².

Some compounds with recorded collision cross section in nitrogen:
compound: CC(C)(COCC1CO1)COCC1CO1 (centres undefined)
units.symbol: Å²
result.value: 148.2

compound: C[C@]12C=CC(=O)C=C1CC[C@@H]1[C@@H]2C(=O)C[C@@]2(C)[C@H]1CC[C@]2(O)C(=O)CO
units.symbol: Å²
result.value: 192.2

compound: O=C1Nc2ccc(Cl)cc2C(c2ccccc2)=NC1O (centres undefined)
units.symbol: Å²
result.value: 180

[in] I have this compound here, CN1CCN(c2ccccc2/C=C2\SCCN(c3ccc(Cl)c(Cl)c3)C2=O)CC1 , and I need its recorded collision cross section in nitrogen.
[out] 211.4

---

# experiment.notes: collision cross section in nitrogen (drift tube, single-field); higher = larger gas-phase ion size
# condition.label: ion type: [M-H]; ion source: ESI; ion mode: Negative
Lab note: anything with collision cross section in nitrogen at or over 200 Å² counts as TRUE; the rest go in FALSE.

See these solved cases before continuing.
molecule: CCCCCCCCCCCCc1ccc(S(=O)(=O)O)cc1 [Dodecylbenzenesulfonic acid]
class: FALSE
--
molecule: CC(C)(C)c1cc(CCC(=O)OCC(COC(=O)CCc2cc(C(C)(C)C)c(O)c(C(C)(C)C)c2)(COC(=O)CCc2cc(C(C)(C)C)c(O)c(C(C)(C)C)c2)COC(=O)CCc2cc(C(C)(C)C)c(O)c(C(C)(C)C)c2)cc(C(C)(C)C)c1O [Irganox 1010]
class: TRUE
--
molecule: Nc1ccc2c(O)cc(S(=O)(=O)O)cc2c1 [7-Amino-4-hydroxynaphthalene-2-sulfonic acid]
class: FALSE

[in] Please check the record CCCOc1ccc(S(=O)(=O)N2CCN(CC)CC2)cc1-c1nc2c(CC)n(Cc3ccccn3)nc2c(=O)[nH]1 and state if its collision cross section in nitrogen is at or above 200 Å².
[out] TRUE

[in] Please indicate if the recorded collision cross section in nitrogen for CCCCCCCCCCCCCC(=O)OCCCC [Butyl myristate] meets or exceeds 200 Å².
[out] FALSE

[in] Form field: collision cross section in nitrogen at least 200 Å²? Entry: S=c1[nH]c2cc(Cl)ccc2s1 [5-Chloro-1,3-benzothiazole-2(3H)-thione]
[out] FALSE

[in] Reported collision cross section in nitrogen at or above 200 Å²? CCOP(=S)(OCC)ON=C(C#N)c1ccccc1 [Phoxim]
[out] FALSE

[in] Dear colleague, could you confirm whether CC(C)(c1ccc(O)cc1)c1ccc(O)cc1 [Bisphenol A] has collision cross section in nitrogen at or above 200 Å²?
[out] FALSE

[in] Hello, I need to know if O=C1c2ccccc2C(=O)c2c1ccc1ccccc21 [7,12-Benz(a)anthraquinone] has measured collision cross section in nitrogen not below 200 Å². Thanks!
[out] FALSE

[in] Given the entry Nc1cc(S(=O)(=O)O)ccc1S(=O)(=O)O [2-Aminobenzene-1,4-disulfonic acid] , answer whether its collision cross section in nitrogen meets or surpasses 200 Å².
[out] FALSE

[in] Could you tell me if the measured collision cross section in nitrogen of COP(=O)(O)OC [Dimethyl phosphate] reaches 200 Å² or more?
[out] FALSE

[in] Say whether CCOC(=O)c1ccc([C@H]2CC[C@H](NC[C@H](O)COc3ccc(O)c(NS(C)(=O)=O)c3)CC2)cc1 shows collision cross section in nitrogen of 200 Å² or more.
[out] TRUE

[in] Assess whether reported collision cross section in nitrogen for COC(=O)c1c(C(F)F)nc(C(F)(F)F)c(C2=NCCS2)c1CC(C)C [Thiazopyr] sits at 200 Å² or higher.
[out] FALSE

[in] Is collision cross section in nitrogen at least 200 Å²? Consider O=[PH]1Oc2ccccc2-c2ccccc21 (centres undefined) [6H-Dibenzo[c,e][1,2]oxaphosphinine 6-oxide]
[out] FALSE

[in] Given O=c1[nH]c(=O)c2[nH]c(=O)[nH]c2[nH]1 [Uric acid] , state whether its collision cross section in nitrogen is at least 200 Å².
[out] FALSE
